study.system: Serine protease 1 (Bos taurus) (UniProt P00760)
Sequence (P00760 whole entry): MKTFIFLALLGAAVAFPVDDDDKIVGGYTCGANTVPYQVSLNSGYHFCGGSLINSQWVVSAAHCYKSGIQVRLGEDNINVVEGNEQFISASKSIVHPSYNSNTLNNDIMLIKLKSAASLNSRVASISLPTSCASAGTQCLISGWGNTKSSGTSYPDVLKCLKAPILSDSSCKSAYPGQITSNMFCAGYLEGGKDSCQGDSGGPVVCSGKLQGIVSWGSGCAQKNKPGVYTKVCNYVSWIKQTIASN
experiment.description: Inhibition of bovine trypsin at 0.2 uM
value.kind: inhibition (%)
Please respond with the number in % and leave the unit unwritten.

>>> print(df.to_string())
                                   molecule                              study_system  value_kind  result_value
0  O=C(O)C1[C@@H](CC2CCNCC2)C(=O)N1C(=O)N1CCN(C(=O)CCCC2CCCCC2)CC1 (single isomer, unassigned)  Serine protease 1 (Bos taurus) (UniProt P00760)  inhibition            40
1  O=C(O)C1[C@@H](CC2CCNCC2)C(=O)N1C(=O)N1CCN(C(=O)c2ccccc2Oc2ccccc2)CC1 (single isomer, unassigned)  Serine protease 1 (Bos taurus) (UniProt P00760)  inhibition             2

Moving on to the next molecule.
-- ask # input molecule: O=C(O)C1[C@@H](CC2CCNCC2)C(=O)N1C(=O)N1CCN(C(=O)Cc2ccc3c(c2)CCCC3)CC1 (single isomer, unassigned) ; wanted: its inhibition
-- reply 18
